Below is a list of entries, each paired with its recorded pIC50 value.
# Test system: TNF-α production by LPS stimulated macrophages
# procedureText: TNF-α production inhibitory activity by LPS stimulated macrophages
# Assay type: cell-based
# studyConditions: Macrophage, BALB/c mouse peritoneal macrophages, cultured for 8 hours, ELISA
The read-out pIC50 is expressed as -log10 of concentration in moles per litre.

Examples with answers:
# querySmiles, measurement
records = [
    ("COC(=O)N1CC[C@@H](n2cc(C(=O)Nc3c(Cl)cncc3Cl)c(=O)c3cccnc32)C1", 8.00),
    ("O=C(Nc1ccncc1)c1cn(C2CCCC2)c2ncccc2c1=O", 7.11),
]

Please examine the following record next.
Incoming: Specify reported pIC50 for the compound shown: "O=C1CCC(n2cc(C(=O)Nc3c(Cl)cncc3Cl)c(=O)c3cccnc32)CC1"
Outgoing: 9.15

====

# systemName: type IV phosphodiesterase
# procedureText: Type IV phosphodiesterase inhibiting activity
# studyConditions: U937 type IV phosphodiesterase fraction, 0.28 μM cAMP, pH 7.5, 30° C., 30 minutes; read-out: PDEIV-IC50
# Description: The following assay was used to evaluate the ability of the compound of the present invention to suppress type IV phosphodiesterase, according to Biochemical. Pharmacol. 48 (6), 1219-1223 (1994). 1) Type IV phosphodiesterase activity fractions were prepared as follows. Namely, human histiocytic lymphoma cell line U937 was cultured in an RPMI1640 medium containing 10% fetal calf serum to obtain 10^9 cells of U937. […]
measuredProperty: IC50 (nM)
# output: bare number, implied unit nM

Incoming: Specify reported IC50 for the compound shown: O=C(Nc1c(Cl)cncc1Cl)c1cn(C2CCN(Cc3ccccc3)CC2)c2ncccc2c1=O [Example 46]
Outgoing: 13

Incoming: Specify reported IC50 for the compound shown: O=C(Nc1ccncc1)c1cn([C@H]2CCOC2)c2ncccc2c1=O [Example 43]
Outgoing: 190

Incoming: Specify reported IC50 for the compound shown: O=C(Nc1ccncc1)c1cn(N2CCOCC2)c2ncccc2c1=O [Example 106]
Outgoing: 140

Incoming: Specify reported IC50 for the compound shown: COC(=O)N1CC[C@H](n2cc(C(=O)Nc3c(Cl)cncc3Cl)c(=O)c3cccnc32)C1 [Example 11]
Outgoing: 1.7
